Tested on: OCI-AML2
Assay: cell viability relative to vehicle control; higher = less cytotoxic;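 note: after 48 h exposure read by CellTiter-Glo luminescence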
Conditions: 10 µM; SRSF2 genotype: P95H/wt
Record form. Attribute: cell viability. Fill in for each entry.
Report as a plain number; the unit % is understood.

// query Quick one: cell viability for CCc1ccc(Cc2ccc3c(c2)[C@]2(OC3)O[C@H](CO)[C@@H](O)[C@H](O)[C@H]2O)cc1 ?
// result 93.8

// query Then CCC(=O)OCC(=O)[C@@]1(OC(=O)CC)[C@@H](C)C[C@H]2[C@@H]3CCC4=CC(=O)C=C[C@]4(C)[C@@]3(F)[C@@H](O)C[C@@]21C [Betamethasone Dipropionate (Diprolene)] ?
// result 113

// query Also need NCCCCCN , thanks.
// result 97.1

// query And the next one, CC(O)c1cc(C(=O)N[C@@H](C)Cn2ccc(-c3ccc(C#N)c(Cl)c3)n2)n[nH]1 (some centres undefined) ?
// result 91.4

---

Tested on: OCI-AML2
Test: cell viability relative to vehicle control; higher = less cytotoxic
Conditions: 10 µM; SRSF2 genotype: P95H/wt
I'd appreciate it if you could supply cell viability values for the items below.
Express the result in % but write the number alone.

// query I have this compound here, COc1ccc(-c2cc(=O)c3c(O)cc(O)cc3o2)cc1O [Diosmetin (Luteolin 4-methyl ether)] , and I need its recorded cell viability.
// result 81

// query Entry CC1=C(CC[C@@H](C)CO[C@@H]2O[C@H](CO)[C@@H](O)[C@H](O)[C@H]2O)O[C@H]2C[C@H]3[C@@H]4CC=C5C[C@@H](O[C@@H]6O[C@H](CO)[C@@H](O[C@@H]7O[C@@H](C)[C@H](O)[C@@H](O)[C@H]7O)[C@H](O)[C@H]6O[C@@H]6O[C@@H](C)[C@H](O)[C@@H](O)[C@H]6O)CC[C@]5(C)[C@H]4CC[C@]3(C)[C@@H]12 [Pseudoprotodioscin] please
// result 110

// query Repeat with CN1CCN(Cc2ccc(NC(=O)Cc3ccc(Oc4cc(NC(=O)C5CC5)ncn4)cc3)cc2C(F)(F)F)CC1
// result 1

// query What would you report for O=C(O)CSCC(=O)NC1CCSC1=O (stereo unspecified) [Erdosteine] ?
// result 89.9

// query Now consider Cc1cnc(Nc2ccc(N3CCN(C)CC3)cc2)nc1Nc1cccc(S(=O)(=O)NC(C)(C)C)c1 and answer again.
// result 0.19

// query Thanks! And COc1ccc(C[C@@H]2c3cc(Oc4cc(C[C@@H]5c6cc(O)c(OC)cc6CCN5C)ccc4O)c(OC)cc3CCN2C)cc1 [Isoliensinine] ?
// result 0.44

---

Tested on: MOLM14
Experiment: cell viability relative to vehicle control; higher = less cytotoxic
Settings: 10 µM; SRSF2 genotype: SRSF2 wt/wt
Property Name: cell viability (%)
Report the figure in % without appending any unit label.

// query I am curious: what cell viability value has been reported for C[C@@H]1O[C@@H](OC[C@H]2O[C@@H](Oc3cc(O)c4c(c3)O[C@H](c3ccc(O)c(O)c3)CC4=O)[C@H](O)[C@@H](O)[C@@H]2O)[C@H](O)[C@H](O)[C@H]1O [Eriocitrin] ?
// result 110

// query Same question for OC[C@H]1O[C@@](CO)(OC[C@@]2(OC[C@@]3(OC[C@@]4(O[C@H]5O[C@H](CO)[C@@H](O)[C@H](O)[C@H]5O)O[C@H](CO)[C@@H](O)[C@@H]4O)O[C@H](CO)[C@@H](O)[C@@H]3O)O[C@H](CO)[C@@H](O)[C@@H]2O)[C@@H](O)[C@@H]1O [1F-Fructofuranosylnystose] please.
// result 107

// query Same lookup for Cc1ncc(COP(=O)(O)O)c(C=O)c1O [Pyridoxal 5-phosphate monohydrate] , please.
// result 102

// query Same for CC(C)(Oc1ccc(C2CC2(Cl)Cl)cc1)C(=O)O (stereo unspecified) [Ciprofibrate]
// result 99.4

// query Then this molecule: C[C@@H](O)[C@H]1C(=O)N2C(C(=O)O)=C(S[C@@H]3CN[C@H](C(=O)N(C)C)C3)[C@H](C)[C@H]12 [Meropenem]
// result 101

// query Try this molecule too: CC1(C)C2CCC1(C)C(O)C2 (stereo unspecified) [Borneol]
// result 99.5

---

Provide the recorded cell viability for the entries that follow.
System: MARIMO
Assay: cell viability relative to vehicle control; higher = less cytotoxic
Details: 10 µM; SRSF2 genotype: SRSF2 P95H/wt
Counter-ions that a name gives are not always drawn.
Record the value in %, omitting the unit from your answer.

// query What measured cell viability is associated with CCc1c2c(nc3ccc(OC(=O)N4CCC(N5CCCCC5)CC4)cc13)-c1cc3c(c(=O)n1C2)COC(=O)[C@]3(O)CC [Irinotecan HCl Trihydrate (Campto)] on MARIMO?
// result 6.18

// query Also check Cc1cccc(Nc2cc(Cl)nc(SCC(=O)O)n2)c1C
// result 98.9

// query And what about the compound COc1ccc2c3c1O[C@H]1C[C@@H](O)C=C[C@@]31CCN(C)C2 ?
// result 102

// query Field entry: C[C@@H]1CCO[C@H]2Cn3cc(C(=O)NCc4ccc(F)cc4F)c(=O)c(O)c3C(=O)N12
// result 84.3

---

System: K562
Experiment: cell viability relative to vehicle control; higher = less cytotoxic
Conditions: 10 µM; SRSF2 genotype: SRSF2 wt/wt
Structures can show the parent of a compound that is named as a salt.
Assignment: determine reported cell viability for the given molecules.
Output spec: scalar in %, unitless text.

// query For the molecule CC1=CCC2CC1C2(C)C (configuration not stated) , what cell viability is on record?
// result 99.4

// query Likewise for CC(C)OC(=O)OCOP(=O)(CO[C@H](C)Cn1cnc2c(N)ncnc21)OCOC(=O)OC(C)C [Tenofovir Disoproxil Fumarate] ?
// result 82.2

// query Try O=c1c(O)c(-c2ccc(O)cc2)oc2cc(O)cc(O)c12 [Kaempferol] next.
// result 108

// query Proceed to CCCCc1oc2ccc(NS(C)(=O)=O)cc2c1C(=O)c1ccc(OCCCN(CCCC)CCCC)cc1 [Dronedarone HCl (Multaq)]
// result 0.61

// query How about this molecule: COC(=O)c1ccc(O)cc1 [Methyl 4-hydroxybenzoate]
// result 88.2

// query Subsequent entry: C1CNCCNCCNCCN1 [Cyclen]
// result 106

// query For COC(=O)C1=C(C)NC(C)=C(C(=O)OCC(C)C)C1c1ccccc1[N+](=O)[O-] (configuration not stated) [Nisoldipine] then?
// result 80.3

// query Param item: C[C@@H](OC[C@@]1(c2ccccc2)CC[C@]2(CCC(=O)N2)CN1)c1cc(C(F)(F)F)cc(C(F)(F)F)c1 [Rolapitant]
// result 68.8

// query Next up: CC1(C)O[C@@H]2C[C@H]3[C@@H]4C[C@H](F)C5=CC(=O)C=C[C@]5(C)[C@@]4(F)[C@@H](O)C[C@]3(C)[C@]2(C(=O)CO)O1 [Fluocinolone acetonide (Flucort-N)]
// result 92.6

// query Follow-up entry: CCc1ccc(CCOc2ccc(CC3SC(=O)NC3=O)cc2)nc1 (configuration not stated) [Pioglitazone (Actos)]
// result 109

// query Please give the result for CN(CC(=O)N(Cc1ccc(C2CCCCC2)cc1)c1ccc(C(=O)O)c(O)c1)S(=O)(=O)c1c(F)c(F)c(F)c(F)c1F too.
// result 13.9

// query Next: O=C(/C=C/n1cnc(-c2cc(C(F)(F)F)cc(C(F)(F)F)c2)n1)N1CC(F)(F)C1
// result 11.8

// query Lookup CN(C)C(=O)CCSC(SCCC(=O)O)c1cccc(/C=C/c2ccc3ccc(Cl)cc3n2)c1 (configuration not stated)
// result 98.5

// query Now try CCCCCOc1ccccc1/C(=C\SC)n1ccnc1 [Neticonazole Hydrochloride] .
// result 68.9

// query Subsequent entry: C[C@H]1COc2c(N3CCN(C)CC3)c(F)cc3c(=O)c(C(=O)O)cn1c23 [Levofloxacin (Levaquin)]
// result 87.5

// query Next: CN(C)C1CCN(C(=O)c2ccc(NC(=O)Nc3ccc(-c4nc(N5CCOCC5)nc(N5CCOCC5)n4)cc3)cc2)CC1
// result 26.6

// query Same question, O[C@@H]1CO[C@H]2[C@@H]1OC[C@@H]2O [Isosorbide] this time
// result 105

---

System: MARIMO
Test: cell viability relative to vehicle control; higher = less cytotoxic
Conditions: 10 µM; SRSF2 genotype: SRSF2 P95H/wt
Please assign criterion not met whenever cell viability is at or above 60%, and criterion met whenever it is below.

// query Criterion: cell viability strictly below 60%. Is it met by Cc1c(C(=O)C=Cc2ccccc2)[n+](=O)c2ccccc2n1[O-] [Quinocetone] ?
// result criterion not met

// query C=CC(=O)Nc1cc2c(Nc3ccc(F)c(Cl)c3)ncnc2cc1OCCCN1CCOCC1 [CI-1033 (Canertinib)] ?
// result criterion met

// query Here is the next compound: COC(=O)N[C@H](C(=O)N1CC2(CC2)C[C@H]1c1nc(-c2ccc3c(c2)C(F)(F)c2cc(-c4ccc5[nH]c([C@@H]6[C@H]7CC[C@H](C7)N6C(=O)[C@@H](NC(=O)OC)C(C)C)nc5c4)ccc2-3)c[nH]1)C(C)C [Ledipasvir (GS5885)]
// result criterion not met

// query What would you report for COc1ccc([C@@H]2CC(=O)c3c(O)cc(O)cc3O2)cc1O [Hesperetin] ?
// result criterion not met

// query Next compound: CN1C(N)=N[C@](C)(c2cc(NC(=O)c3ccc(F)cn3)ccc2F)CS1(=O)=O [Verubecestat (MK-8931)]
// result criterion not met

// query Param item: CC1=C(C(=O)Nc2ccc3[nH]ncc3c2)C(c2ccc(F)cc2)NC(=O)N1 (stereo not drawn)
// result criterion not met

// query Try O=C(/C=C/c1cncc(F)c1)c1c(-c2ccccc2)c2cc(Cl)ccc2[nH]c1=O next.
// result criterion met

// query Same question, OCC(CO)N[C@H]1C[C@](O)(CO)[C@@H](O)[C@H](O)[C@H]1O [Voglibose] this time
// result criterion not met
